Recorded remaining at 0.5 h for the following molecules
Assay: Metabolic stability in human liver microsomes after 30 mins
Type: ADME, Microsome
Conditions: read-out: Stability
observationType: remaining at 0.5 h (%)

molecule | unitsSymbol | reportedMeasurement
Cc1cc(NC(=O)C2CCCCC2C)cc(CN2CCOCC2)c1C (stereo not given) | % | 32
Cc1ccc(NC(=O)C(C)(C(F)(F)F)C(F)(F)F)cc1CN1CCOCC1 | % | 42
Cc1cc(F)c(NC(=O)C2CCCCC2C)cc1CN1CCOCC1 (stereo not given) | % | 36
CCC(C)(C)C(=O)Nc1cc(CN2CCOCC2)c(C)cc1C | % | 61
Cc1c(CN2CCOCC2)cc(NC(=O)C2CCCCC2C)cc1C(F)(F)F (stereo not given) | % | 2
Cc1ccc(NC(=O)C2CCCCC2C)cc1CN1CCOCC1 (stereo not given) | % | 38
Cc1cc(NC(=O)C(C)(C(F)(F)F)C(F)(F)F)cc(CN2CCOCC2)c1C | % | 31
CCC(C)(C)C(=O)Nc1ccc(C)c(CN2CCOCC2)c1 | % | 56
CCC(C)(C)C(=O)Nc1cc(CN2CCOCC2)c(C)cc1F | % | 57
Cc1cc(C)c(NC(=O)C2CCCCC2C)cc1CN1CCOCC1 (stereo not given) | % | 49

---

Target: Cannabinoid receptor 1 (Homo sapiens)
Sequence (P21554 whole entry): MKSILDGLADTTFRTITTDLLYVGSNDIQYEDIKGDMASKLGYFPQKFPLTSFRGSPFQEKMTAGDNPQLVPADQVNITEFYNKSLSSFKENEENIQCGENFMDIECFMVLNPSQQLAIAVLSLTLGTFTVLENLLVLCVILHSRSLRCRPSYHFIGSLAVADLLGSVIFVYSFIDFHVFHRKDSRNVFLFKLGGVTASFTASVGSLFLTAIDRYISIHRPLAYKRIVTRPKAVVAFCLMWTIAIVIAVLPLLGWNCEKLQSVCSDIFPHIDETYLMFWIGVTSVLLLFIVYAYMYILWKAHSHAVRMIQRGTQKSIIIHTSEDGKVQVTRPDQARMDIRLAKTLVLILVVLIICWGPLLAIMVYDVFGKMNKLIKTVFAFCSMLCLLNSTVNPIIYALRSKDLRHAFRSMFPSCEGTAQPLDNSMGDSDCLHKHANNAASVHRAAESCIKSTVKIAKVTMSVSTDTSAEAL
observationType: Ki

compound | observationType | reportedMeasurement
Cc1cc(NC(=O)C(C)(C(F)(F)F)C(F)(F)F)cc(CN2CCOCC2)c1C | Ki | 500 nM
Cc1ccc(C(=O)NC2C(C)(C)[C@@H]3CC[C@@]2(C)C3)cc1CCCN1CCOCC1 (some centres undefined) | Ki | 2100 nM
CC(C(=O)Nc1ccc2c(c1)C(N1CCOCC1)CCC2)(C(F)(F)F)C(F)(F)F (single isomer, unassigned) | Ki | 1300 nM
Cc1ccc(C(=O)NC2C(C)(C)[C@@H]3CC[C@@]2(C)C3)cc1CCC(=O)N1CCOCC1 (some centres undefined) | Ki | 1700 nM

---

Molecular target: Cannabinoid receptor 2 (Homo sapiens)
Sequence (P34972 whole entry): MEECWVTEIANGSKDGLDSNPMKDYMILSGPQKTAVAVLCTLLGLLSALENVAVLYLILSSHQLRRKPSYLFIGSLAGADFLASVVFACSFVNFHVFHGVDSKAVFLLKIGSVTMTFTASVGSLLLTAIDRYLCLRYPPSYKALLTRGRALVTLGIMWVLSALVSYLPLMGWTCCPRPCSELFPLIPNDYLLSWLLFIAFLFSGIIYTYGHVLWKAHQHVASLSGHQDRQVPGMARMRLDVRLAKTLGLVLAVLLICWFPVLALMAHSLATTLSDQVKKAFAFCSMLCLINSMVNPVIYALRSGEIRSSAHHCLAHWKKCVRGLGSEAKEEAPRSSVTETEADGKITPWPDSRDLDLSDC
Assay: Agonist activity at human CB2 receptor expressed in CHO cells by [35S]GTPgammaS binding assay
pEC50: −log10 of the molar value.
Label true (1) for high-side pEC50 (at or above 7) and false (0) for low-side pEC50 (below it).

compound | group
CC(C(=O)Nc1ccc2c(c1)C(N1CCOCC1)CCC2)(C(F)(F)F)C(F)(F)F (stereo in doubt; 43) | true (1)
CCC(C)(C)C(=O)Nc1cc(CN2CCOCC2)c(C)cc1F | false (0)
Cc1cc(NC(=O)C(C)(C(F)(F)F)C(F)(F)F)cc(CN2CCOCC2)c1C | true (1)
Cc1c(CN2CCOCC2)cc(NC(=O)C2CCCCC2C)cc1C(F)(F)F (stereo not drawn) | true (1)
CC(C(=O)Nc1ccc2c(c1)C(N1CCOCC1)CCC2)(C(F)(F)F)C(F)(F)F (single isomer, unassigned) | true (1)

---

Molecular target: UniProtKB P34972
Assay: Agonist activity at human CB2 receptor expressed in CHO cells by [35S]GTPgammaS binding assay
pEC50: −log10 of the molar value.
Label 1 (yes) for high-side pEC50 (at or above 7) and 0 (no) for low-side pEC50 (below it).

compound | group
CCC(C)(C)C(=O)Nc1cc(CN2CCOCC2)c(C)cc1C | 0 (no)
Cc1ccc(NC(=O)C(C)(C(F)(F)F)C(F)(F)F)cc1CN1CCOCC1 | 1 (yes)
Cc1cc(NC(=O)C2CCCCC2C)cc(CN2CCOCC2)c1C (centres undefined) | 1 (yes)
Cc1cc(F)c(NC(=O)C2CCCCC2C)cc1CN1CCOCC1 (centres undefined) | 1 (yes)
Cc1cc(C)c(NC(=O)C2CCCCC2C)cc1CN1CCOCC1 (centres undefined) | 0 (no)
Cc1ccc(C(=O)NC2C(C)(C)[C@@H]3CC[C@@]2(C)C3)cc1S(=O)(=O)N1CCOCC1 (some centres undefined) | 1 (yes)
Cc1ccc(C(=O)NC2C(C)(C)[C@@H]3CC[C@@]2(C)C3)cc1CN1CCOCC1 (some centres undefined) | 1 (yes)

These measurements were taken from ChEMBL document CHEMBL1155343.
